Test system: U-251
Procedure text: NCI tumour cell line growth inhibition, 48 h
Active and inactive are the calls of the source. No stated cut-off is given here; in the data, active = GI50 up to about 1.1 µM and inactive = higher.
Measured GI50 values are reported for all entries that follow.

O=P1(C(O)/C=C/c2ccccc2)N(Cc2ccccc2)[C@H](c2ccccc2)[C@@H](c2ccccc2)N1Cc1ccccc1 (stereo partly drawn)
19.9 µM (inactive)
Cc1cccc2c1CC1(C2)Cc2c(C)cccc2C1=O (stereo not drawn)
23.8 µM (inactive)
CN(C)CCN(C)P12(Oc3ccccc3O1)Oc1c(Cl)c(Cl)c(Cl)c(Cl)c1O2
56.5 µM (inactive)
COc1c(O)c(OC)c2oc(-c3ccc(O)cc3)c(OC)c(=O)c2c1O
23.9 µM (inactive)
C[C@@H]1S[C@H](c2ccccc2F)N2Cc3ccccc3N=C12
27.9 µM (inactive)
COc1ccc(-c2cc(-c3ccc(Nc4ccnc5cc(Cl)ccc45)cc3)nc(N)c2C#N)c2ccccc12
> 100 µM (inactive)

The molecule C#CC1(O)CCC2[C@@H]3CCc4cc(Oc5nc(F)nc(-c6c7ccccc7c(SCC)n6CCC)n5)ccc4C3CC[C@@]21C (stereo partly drawn) showed GI50 equal to 54.6 µM (inactive)

The molecule Cc1nnc(N/N=C2\C(=O)Nc3ccccc32)n1N showed GI50 equal to > 100 µM (inactive)

The molecule Cc1nc(-n2nc(-c3ccccc3)cc2-c2ccccc2)sc1C(=O)/C=C/c1ccccc1 showed GI50 equal to > 100 µM (inactive)

The molecule CC(=O)/C(=C\NC(N)=S)C(=O)Nc1ccccc1C showed GI50 equal to > 100 µM (inactive)

The molecule Cc1c(C#N)c(=N)oc2ccccc12 showed GI50 equal to > 100 µM (inactive)

The molecule O=S1(=O)OCc2ccccc21 showed GI50 equal to > 100 µM (inactive)

The molecule C(=NCCN1CCOCC1)=NC1CCCCC1 showed GI50 equal to > 100 µM (inactive)

----------
Measured GI50 values are reported for all entries that follow.
Test system: IGROV-1
Procedure text: NCI tumour cell line growth inhibition, 48 h
Activity calls are given as the source filed them. Rule as the data show it: active = GI50 up to about 1.1 µM and inactive = higher.

The reported IGROV-1 GI50 of N/C(=N\O)N/N=C\c1ccccc1O is 11.3 µM (inactive)

The reported IGROV-1 GI50 of COC(=O)C1=C(OC(=O)/C(=C/c2ccccc2)c2ccc([N+](=O)[O-])cc2)C(C(=O)OC)[C@@]2(O)[C@@H](C(=O)OC)[C@H](C)C[C@@H]1[C@@H]2C(=O)OC (some centres undefined) is > 100 µM (inactive)

----------
Test system: ACHN
Procedure text: NCI tumour cell line growth inhibition, 48 h
Active and inactive are the calls of the source. No stated cut-off is given here; in the data, active = GI50 up to about 1.1 µM and inactive = higher.
Measured GI50 values are reported for all entries that follow.

CC(C)C1=CC2=CC[C@@H]3[C@](C)(CCC[C@@]3(C)C(=O)O)[C@H]2CC1 [ABIETIC ACID]
53.8 µM (inactive)
Oc1ccc2ccccc2c1/N=N/c1ccc(/N=N/c2ccccc2)cc1
> 100 µM (inactive)

Let's switch to this compound now.
The compound CN1C(CC(O)c2ccccc2)CCCC1CC(O)(c1ccccc1)c1ccccc1 (stereo not given) showed GI50 equal to 19.7 µM (inactive)

----------
System: HCT-116
Procedure text: NCI tumour cell line growth inhibition, 48 h
Counter-ions that a name gives are not always drawn. The source made the active and inactive calls. No stated cut-off is given here; in the data, active = GI50 up to about 1.1 µM and inactive = higher.
Outcome measure: GI50

Here is how some compounds turned out for GI50.
CC(C)c1cc(C(C)C)c(Cl)c(Cl)c1O.CC(C)c1cc(Cl)c(O)c(C(C)C)c1Cl
76.7 µM (inactive)
CCOC(OCC)[C@@H]1C[C@@H]2N(O[C@H](OC3CCCC3(c3ccccc3)c3ccccc3)[C@H](OC(C)=O)[C@@]2(CC)Cc2ccc(OC)c(OC)c2)O1 (stereo partly specified)
> 100 µM (inactive)
CC(=O)N(C)c1ccc(Nc2cc(C)nc3ccc4nc[nH]c4c23)cc1 [ACODAZOLE HYDROCHLORIDE]
4.55 µM (inactive)
Cc1cc2c(c(C(=O)NCC(=O)N[C@@H](C)C(=O)OCc3ccccc3)c1)Oc1c(cc(C)cc1C(=O)NCC(=O)N[C@@H](C)C(=O)OCc1ccccc1)S2
> 100 µM (inactive)
Cc1ccc(S(=O)(=O)C2=C(C(C)C)N=NC2(C)C)cc1
65.5 µM (inactive)

Let's switch to this compound now.
The compound COc1ccc2c([nH]c3cc(O)c(C)cc32)c1C=O showed GI50 equal to > 25 µM (inactive)
